- procedureSummary: Microsomal stability assay, human liver microsomes;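 note: pooled human liver microsomes at 0.25 mg/mL with 1 µM compound and NADPH at 37 °C, pH 7.4, for 30 min, unchanged parent quantified by LC-MS/MS against the 0 min sample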
- settings: human liver microsomes
quantityKind: HLM (µL/min/mg)
Just the number please, in µL/min/mg, no unit attached.

// below: answered compounds
COCC(=O)N[C@@H](Cc1cccc(F)c1)[C@H](O)CN[C@H]1CC2(CCC2)Oc2c(-c3ccnc(OC)c3)cc(CC(C)(C)C)cc21 399
COCC(=O)N[C@@H](Cc1ccc2c(c1)OCO2)[C@H](O)CN[C@H]1CC2(CCC2)Oc2ncc([C@@H]3CC3(C)C)cc21 33

query: Dear colleague, please send me the reported HLM for CC(=O)N[C@@H](Cc1cccc(-c2cccnc2)c1)[C@H](O)CN[C@H]1CC2(CCC2)Oc2ncc(CC(C)(C)C)cc21 when you can.
result: 829

query: Retrieve HLM measured for COCC(=O)N[C@@H](Cc1cc(F)cc(F)c1)[C@H](O)CN[C@H]1CC2(CCC2)Oc2c(-c3ccncc3)cc(CC(C)C)cc21 and print it.
result: 31

query: Input COCC(=O)N[C@@H](Cc1ccc(F)cc1)[C@H](O)CN[C@H]1CC(C)(C)Oc2c1cc(Br)c1c2OCO1 , output reported HLM.
result: 179

query: Look up and report measured HLM for this entry: COCC(=O)N[C@@H](Cc1ccccc1)[C@H](O)CN[C@H]1CC2(CCC2)Oc2c(-c3cncn3C)cc(CC(C)C)cc21
result: 44

query: # return recorded HLM for entry CC(=O)N[C@@H](Cc1ccc(-c2cncs2)cc1)[C@H](O)CN[C@H]1CC2(CCC2)Oc2ncc(CC(C)(C)C)cc21
result: 82

query: Tell me HLM reported for CC(=O)N[C@@H](Cc1cc(F)cc(-c2cscn2)c1)[C@H](O)CN[C@H]1CC2(CCC2)Oc2ncc(CC(C)(C)C)cc21
result: 358

query: Please supply the value of reported HLM for the item COCC(=O)N[C@@H](Cc1cc(F)cc(F)c1)[C@H](O)CN[C@H]1CC2(CCC2)Oc2c1cc(CC(C)C)nc2-c1nccn1C
result: 20

query: Specify reported HLM for the compound shown: COCC(=O)N[C@@H](Cc1cc(F)cc(-c2ccncc2)c1)[C@H](O)CN[C@H]1CC2(CCC2)Oc2ncc(CC(C)(C)C)cc21
result: 228

----------
Below, each of the molecules is paired with its reported pIC50 value.
- targetEntity: CYP2D6 (Homo sapiens, UniProt P10635)
- Sequence (P10635 whole entry): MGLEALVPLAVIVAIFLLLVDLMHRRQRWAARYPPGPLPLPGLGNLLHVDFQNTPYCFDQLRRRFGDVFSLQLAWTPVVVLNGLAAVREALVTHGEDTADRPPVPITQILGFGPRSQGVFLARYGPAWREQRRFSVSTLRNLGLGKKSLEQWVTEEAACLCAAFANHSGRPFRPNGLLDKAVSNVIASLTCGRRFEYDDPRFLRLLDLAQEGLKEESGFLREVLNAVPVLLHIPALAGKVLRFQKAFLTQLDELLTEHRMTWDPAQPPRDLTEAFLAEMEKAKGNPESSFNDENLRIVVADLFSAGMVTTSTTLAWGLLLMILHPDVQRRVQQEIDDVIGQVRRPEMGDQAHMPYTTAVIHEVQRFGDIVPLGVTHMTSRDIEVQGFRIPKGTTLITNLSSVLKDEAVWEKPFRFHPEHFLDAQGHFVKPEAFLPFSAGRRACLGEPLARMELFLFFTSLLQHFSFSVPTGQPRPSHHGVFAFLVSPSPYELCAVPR
- procedureSummary: CYP2D6 inhibition assay (bufuralol, pooled human liver microsomes)
- settings: 2D6 IC50, CYP2D6 inhibition
Notebook: values listed as pIC50 are -log10 of the concentration (mol/L).

Consider the reported pIC50 for these molecules:
molecule	pIC50
CO[C@H](C)C(=O)N[C@@H](Cc1cc(F)cc(F)c1)[C@H](O)CN[C@H]1CC2(CCC2)Oc2c1cc(CC(C)(C)C)nc2-c1ccncc1 [compound 583]	5.92
CC(=O)N[C@@H](Cc1ccc(F)c(-c2nccs2)c1)[C@H](O)CN[C@H]1CC2(CCC2)Oc2ncc(CC(C)(C)C)cc21 [compound 621]	6.05

query: Enter recorded pIC50 with CYP2D6 (Homo sapiens, UniProt P10635) for CC(=O)N[C@@H](Cc1cccc(F)c1)[C@H](O)CN[C@H]1CC2(CCC2)Oc2c1cc(Cl)cc2-n1ccnc1 [compound 594] here.
result: 6.52

query: Give pIC50 only, for CC(=O)N[C@@H](Cc1cc(F)cc(-c2ccco2)c1)[C@H](O)CN[C@H]1CC2(CCC2)Oc2ccc(CC(C)(C)C)cc21 [compound 646] , using CYP2D6 (Homo sapiens, UniProt P10635) data.
result: 5.80

query: Provide pIC50, tested on CYP2D6 (Homo sapiens, UniProt P10635), for CC(=O)N[C@@H](Cc1cc(F)cc(-c2ccncc2)c1)[C@H](O)CN[C@H]1CC2(CCC2)Oc2ncc(CC(C)(C)C)cc21 [compound 614] .
result: 6.40
